- experimental.system: G-protein coupled receptor 55 (Homo sapiens) (UniProt Q9Y2T6)
- Sequence (Q9Y2T6 whole entry, looked up): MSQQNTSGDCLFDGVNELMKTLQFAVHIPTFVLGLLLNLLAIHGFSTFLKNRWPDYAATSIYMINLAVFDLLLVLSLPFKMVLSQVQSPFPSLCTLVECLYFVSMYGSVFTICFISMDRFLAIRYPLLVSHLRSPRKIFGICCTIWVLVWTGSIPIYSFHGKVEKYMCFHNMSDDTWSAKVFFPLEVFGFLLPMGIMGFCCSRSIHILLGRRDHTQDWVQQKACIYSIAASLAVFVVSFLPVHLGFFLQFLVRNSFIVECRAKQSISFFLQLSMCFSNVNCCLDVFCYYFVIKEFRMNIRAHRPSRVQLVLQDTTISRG
- test.name: GPR55 antagonists blocking LPI-driven arrestin recruitment, primary screen, imaging, U2OS, beta-arrestin-GFP, LPI agonist (AID 2013);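 note: U2OS cells stably carrying GPR55 and arrestin-GFP stimulated by 5 µM LPI near EC80; imaged beta-arrestin-GFP aggregate spots per cell after agonist stimulation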
- test.parameters: U2OS GPR55 beta-arrestin-GFP translocation imaging, LPI antagonism; at 10 µM
Among all 290,000 compounds or so, about 370 (0.13%) were called active.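 Rule for the calls: active = spots per cell inhibited over 60%, with over 100 cells counted and total cytoplasm intensity under 500,000; inconclusive = wells with under 100 cells, flagged as likely toxic; inactive = the rest.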 Many of the other results were omitted from the sample, so actives are more common in it than they were. Results with a measured potency or affinity are listed apart.
Outcome field: choose from YES for active, NO for inactive

// below: answered compounds
{"compound": "O=C(N/N=C\\c1ccncc1)c1ccc(Br)s1", "label.value": "NO"}
{"compound": "CCN(CC(O)CON=C1c2ccccc2-c2ccccc21)S(=O)(=O)c1ccc(C)cc1 (stereo unspecified)", "label.value": "YES"}
{"compound": "O=[N+]([O-])c1ccc(C2CNC(c3ccccc3)O2)cc1 (stereo unspecified)", "label.value": "NO"}
{"compound": "Cc1cccc(N(CC(O)CON=C2c3ccccc3-c3ccccc32)S(C)(=O)=O)c1 (stereo unspecified)", "label.value": "NO"}

# outcome recorded in this test, key = CC(C)CCNCC(O)CON=C1c2ccccc2-c2ccccc21 (stereo unspecified)
NO

# outcome recorded in this test, key = CS(=O)(=O)N(CC(O)CON=C1c2ccccc2-c2ccccc21)c1ccc(F)cc1 (stereo unspecified)
NO

# outcome recorded in this test, key = Cc1c(CN2CCN(CC(C)(C)C)C(CCO)C2)[nH]c2ccccc12 (stereo unspecified)
NO

# outcome recorded in this test, key = COc1cc(C(=O)NCc2nnc(SCC(=O)Nc3nc4ccccc4s3)o2)cc(OC)c1OC
NO

# outcome recorded in this test, key = O=C(O)Cc1cc(I)c(Oc2ccc(O)c(I)c2)c(I)c1
NO

# outcome recorded in this test, key = CCN(CC(O)Cn1c2ccccc2c2ccccc21)S(=O)(=O)c1ccc(C)cc1 (stereo unspecified)
NO

# outcome recorded in this test, key = N[C@@H](Cc1ccc(O)c(I)c1)C(=O)O
NO
